target: BRD4 (BD1) (Homo sapiens); construct: with relatively long constructs also being possible, preferably amino acids 44-168; made in house; host or cells: E. coli; experiment: Binding assay BRD4/acetylated peptide H4 (TR-FRET protein-protein interaction assay)
pIC50 for assorted compounds
Just so you know, pIC50 here is -log10 of the concentration in molar units; reply with that number alone.

CNC(=O)C1CCN(c2ccc(C3=NN(C(=O)NC)[C@@H](C)Cc4cc(OC)c(OC)cc43)cc2)CC1 [Example 189.1]    7.40
CNC(=O)N1N=C(c2cccc(-c3c(C)nn(C)c3C)c2)c2cc(OC)c(OC)cc2CC1C (racemic) [Example 53]    7.40
CNC(=O)N1N=C(c2ccc(-c3ccc(OC)nc3)cc2)c2cc(OC)c(OC)cc2CC1C (racemic) [Example 66]    7.15

Please fill in: pIC50 reported for CNC(=O)N1N=C(c2cccc(-c3c(C)noc3C)c2)c2cc(OC)c(OC)cc2CC1C (racemic) [Example 31] = 6.74

---

IC50 for assorted compounds
target: BRD4 (BD1) (Homo sapiens); construct: with relatively long constructs also being possible, preferably amino acids 44-168; assay: Binding assay BRD4/acetylated peptide H4 (TR-FRET protein-protein interaction assay)
Write it as a number; the unit µM goes unstated.

CNC(=O)N1N=C(c2ccc(-c3cc(C)cc(F)c3)cc2)c2cc(OC)c(OC)cc2CC1C (racemic) [Example 120]    0.19
CNC(=O)N1N=C(c2ccc(N3CCOCC3=O)cc2)c2cc(OC)ccc2C[C@@H]1C [Example 177]    0.07
CNC(=O)N1N=C(c2ccc(-c3cn(C)nn3)cc2)c2cc(OC)c(OC)cc2C[C@@H]1C [Example 45.1]    0.07
CNC(=O)N1N=C(c2ccc(N3CC(F)C3)cc2)c2cc(OC)c(OC)cc2C[C@@H]1C [Example 129.2]    0.02
CNC(=O)N1N=C(c2cccc(-c3cnn(C)c3)c2)c2cc(OC)c(OC)cc2CC1C (racemic) [Example 54]    0.05

Summary: CNC(=O)N1N=C(c2ccc(N3CCN(C(C)=O)CC3)cc2)c2cc(OC)c(OC)cc2CC1C (racemic) [Example 132] , BRD4 (BD1) (Homo sapiens), IC50 = 0.03

Summary: CNC(=O)N1N=C(c2ccc(N3CCN(C)C(=O)C3)cc2)c2ccc(N3CCN(C)C(=O)C3)cc2CC1C (racemic) [Example 238] , BRD4 (BD1) (Homo sapiens), IC50 = 0.13

Summary: CNC(=O)N1N=C(c2ccc(-c3c(C)noc3C)cc2)c2cc(OC(F)(F)F)c(Cl)cc2C[C@@H]1C [Example 156.1] , BRD4 (BD1) (Homo sapiens), IC50 = 0.33

Summary: CNC(=O)N1N=C(c2ccc(-c3c(C)noc3C)cc2)c2cc(N3CCOCC3)ccc2CC1C (racemic) [Example 176] , BRD4 (BD1) (Homo sapiens), IC50 = 0.04

Summary: COc1cc2c(cc1OC)C(c1ccc(N3CCN(C)CC3)cc1)=NN(C(=O)C1CC1)C(C)C2 (racemic) [Example 256] , BRD4 (BD1) (Homo sapiens), IC50 = 0.61

Summary: CNC(=O)N1N=C(c2ccc(-c3ccc(OC(F)(F)F)cc3)cc2)c2cc(OC)c(OC)cc2CC1C (racemic) [Example 95] , BRD4 (BD1) (Homo sapiens), IC50 = 0.63

Summary: CNC(=O)N1N=C(c2ccc(N3CCC(O)CC3)cc2)c2cc(Cl)c(OC(F)(F)F)cc2CC1C (racemic) [Example 212] , BRD4 (BD1) (Homo sapiens), IC50 = 0.31

Summary: CNC(=O)N1N=C(c2ccc(-c3c(C)nn(C)c3C)cc2)c2cc(OC)c(OC)cc2C[C@@H]1C [Example 51.2] , BRD4 (BD1) (Homo sapiens), IC50 = 0.03

Summary: CNC(=O)N1N=C(c2cccc(N3CCOCC3)c2)c2cc(OC)c(OC)cc2CC1C (racemic) [Example 140] , BRD4 (BD1) (Homo sapiens), IC50 = 0.06

Summary: CNC(=O)N1N=C(c2ccc(N3CCOCC3)cc2)c2cc(OC)c(OC)cc2CC1C (racemic) [Example 7] , BRD4 (BD1) (Homo sapiens), IC50 = 0.03

Summary: CNC(=O)N1N=C(c2ccc(-c3c(C)noc3C)cc2)c2cc(OC)c(OC)cc2C[C@H]1C [Example 2.1] , BRD4 (BD1) (Homo sapiens), IC50 = 0.25

Summary: CNC(=O)N1N=C(c2ccc(F)c(N3CC(F)(F)C3)c2)c2cc(OC)c(OC)cc2CC1C (racemic) [Example 145] , BRD4 (BD1) (Homo sapiens), IC50 = 0.11
